The reported measurements were obtained from ChEMBL document CHEMBL1201862.

Test system: HCC 2998
ASSAY: NCI tumour cell line growth inhibition, 48 h
Activity calls are given as the source filed them. Rule as the data show it: active = GI50 up to about 1.1 µM and inactive = higher.
READOUT KIND: GI50

Record excerpt, results attached:
| COMPOUND | GI50 |
| --- | --- |
| C[C@H]1CC(=O)C2=CCCC3(SCCCS3)[C@@H]2[C@H]1CO | > 100 µM (inactive) |
| O=C1c2c(O)cccc2C(C(=O)CCCCCC(=O)C2c3cccc(O)c3C(=O)c3c(O)cccc32)c2cccc(O)c21 | 2.27 µM (inactive) |
| CCCCCCCC(CC(=O)O)OC(=O)CC(CCCCCCC)OC1OC(C)C(O)C(O)C1OC1OC(C)C(O)C(O)C1O (stereo not given) | > 100 µM (inactive) |
| Nc1c(-c2cccc3ccccc23)c2ccc([N+](=O)[O-])cc2c(=O)n1-c1nc2ccccc2s1 | 7.14 µM (inactive) |
| Nc1nccc(NCC2(CO)CCC2)n1 | > 100 µM (inactive) |
| c1ccc(CNn2nnc3ccccc32)cc1 | > 100 µM (inactive) |

Batch: GI50 for all items listed.
1. CC1(C)S[C@H](CN)N[C@H]1C(=O)OC(c1ccccc1)c1ccccc1
2. CCOC(=O)C12CC(C)=C(C)CC1CCCc1ccccc12 (stereo not given)
3. CSc1sc(=S)sc1SC
4. CCOC(=O)C12CCC(c3c(C)cccc3C)(O1)C(C(=O)OC)=C2C(=O)OC (stereo not given)

(A)
1. 18.6 µM (inactive)
2. 14.2 µM (inactive)
3. > 100 µM (inactive)
4. 6.7 µM (inactive)

====

Tested on: PC-3
ASSAY: NCI tumour cell line growth inhibition, 48 h
Calls of active or inactive are those of the source. Cut-off read from the data, not from the text of the source: active = GI50 up to about 1.1 µM and inactive = higher.
READOUT KIND: GI50

Record excerpt, results attached:
| MOLECULE | ASSAY TARGET | GI50 |
| --- | --- | --- |
| CCOP(=O)(OCC)C(C)(CC)NC1=NC(C(F)(F)F)(C(F)(F)F)NC(=O)N1 (stereo unspecified) | PC-3 | > 100 µM (inactive) |
| O=C(/C=C/c1ccc(/C=C/C(=O)c2ccc(O)cc2)cc1)c1ccc(O)cc1 | PC-3 | > 100 µM (inactive) |
| CN(C)c1nncc2[nH]nnc12 | PC-3 | > 100 µM (inactive) |
| Cc1ncc([N+](=O)[O-])n1CC(O)Cn1cnc([N+](=O)[O-])n1 (stereo unspecified) | PC-3 | > 100 µM (inactive) |
| Cc1cc2ccc(N)nc2nc1O | PC-3 | > 100 µM (inactive) |

Batch: GI50 for all items listed.
1. O=C(O)c1ccccc1/C=N/N=C1NCCN1
2. CC(C)(C)[Si](C)(C)OCC1OC(n2cnc3c(=O)[nH]cnc32)CC1O (stereo unspecified)
3. C[Si](C)(C)CCOCN(C(=O)C1=CCC2(CC1)OCCO2)c1ccccc1I

(A)
> 100 µM (inactive)
> 100 µM (inactive)
12.6 µM (inactive)

Batch: GI50 for all items listed.
1. O=c1oc2ccccc2cc1P(=O)(O)O
2. O=C(OC1OC2COC(=O)c3cc(O)c(O)c(O)c3-c3c(cc(O)c(O)c3O)C(=O)OC3C2OC(=O)[C@@]24CC(=O)[C@@](O)(OC25C(=O)O[C@H]2[C@@H](O)CO[C@@]25O)C2(O)Oc5c(O)c(O)cc(c5C24)C(=O)OC13)c1cc(O)c(O)c(O)c1 (stereo partly specified)
3. O=C1c2ccccc2-n2c1nc1ccc(Cl)cc1c2=O

(A)
1: > 100 µM (inactive); 2: 42.3 µM (inactive); 3: > 100 µM (inactive)

====

System: UO-31
ASSAY: NCI tumour cell line growth inhibition, 48 h
The source made the active and inactive calls. Rule as the data show it: active = GI50 up to about 1.1 µM and inactive = higher.
READOUT KIND: GI50

Record excerpt, results attached:
| COMPOUND | GI50 |
| --- | --- |
| Oc1c(Cl)c(Cl)c(O)c(-c2cnc(-c3ncc(-c4c(O)c(Cl)c(Cl)c(O)c4Cl)s3)s2)c1Cl | 21.1 µM (inactive) |
| CN(C)c1nncc2[nH]nnc12 | > 100 µM (inactive) |
| CC(=O)NC1=C(NCCN(C)C)C(=O)c2ccccc2C1=O | > 50 µM (inactive) |

Batch: GI50 for all items listed.
1. CC1OC(OC2C(OC(=O)[C@@H]3CC(C)(C)C[C@H]4C5=CC[C@@H]6[C@@]7(C)C[C@H](O)[C@H](OC8OC(CO)C(O)C(O)C8O)[C@@](C)(CO)[C@@H]7[C@H](O)C[C@@]6(C)[C@]5(C)CC[C@@]34C)OCC(O)C2O)C(O)C(O)C1O (stereo not given in full)
2. Cc1ncc(COP(=O)(O)O)c(C)c1O
3. Cc1cn(C2OC(C)(CO)C(O)C2O)c(=O)[nH]c1=O (stereo not given)
4. CC1CC2C3CC(F)C4=CC(=O)C=CC4(C)C3(F)C(O)CC2(C)C1(O)C(=O)COC(=O)C(C)(C)C (stereo not given)
5. O=C(O)CN1CCCC(Cc2c[nH]c3ccccc23)C1 (stereo not given)
6. CC(C)Cc1ccc(C(C)CC2=CCC(CN(C)C)C2=O)cc1 (stereo not given)

(A)
1. > 7.5 µM (inactive)
2. > 100 µM (inactive)
3. > 100 µM (inactive)
4. > 100 µM (inactive)
5. > 100 µM (inactive)
6. 16.4 µM (inactive)

====

System: MDA-MB-435
ASSAY: NCI tumour cell line growth inhibition, 48 h
Activity calls are given as the source filed them. Rule as the data show it: active = GI50 up to about 1.1 µM and inactive = higher.
Would you mind telling me the reported GI50 of each entry?

| MOLECULE | ASSAY TARGET | GI50 |
| --- | --- | --- |
| COc1ccc(N2CC(=O)N(C(=O)COc3ccc(OCC(=O)N4C(=O)CN(c5ccc(OC)cc5)C4=S)cc3)C2=S)cc1 | MDA-MB-435 | > 100 µM (inactive) |
| CCCCCCCCCCCCCC(=O)N(CCCCCCCCC)CC(O)C(O)C(OC1OC(CO)C(O)C(O)C1O)C(O)CO (centres undefined) | MDA-MB-435 | 19.8 µM (inactive) |
| NS(=O)(=O)c1ccc(NC(=S)N/C=C2\C(=O)Nc3ccccc3C2=O)cc1 | MDA-MB-435 | > 100 µM (inactive) |
| O=C1CS[C@@](CC(c2ccc(Cl)cc2)c2ccc(Cl)cc2)(c2ccc(Cl)cc2)N1 | MDA-MB-435 | 14 µM (inactive) |
| O=C(N/N=C/c1ccc(Cl)cc1)c1ccccc1Nc1ccccc1C(=O)N/N=C/c1ccc(Cl)cc1 | MDA-MB-435 | > 100 µM (inactive) |

Batch: GI50 for all items listed.
1. Cc1ccc(Nc2cc(=O)[nH]c(=S)[nH]2)cc1
2. COC(=O)C(CCC1CC(OC)N(C(=O)OCc2ccccc2)C1)/N=C/c1ccccc1 (centres undefined)
3. O=C1c2ccccc2-n2c1nc1ccc(Cl)cc1c2=O
4. CCCCCC(=O)OC[n+]1ccc(-c2c(COC(=O)NC(C)C)c(COC(=O)NC(C)C)c3n2CCC3)cc1

(A)
["> 100 µM (inactive)", "53.8 µM (inactive)", "15.6 µM (inactive)", "> 100 µM (inactive)"]

====

Test system: U-251
ASSAY: NCI tumour cell line growth inhibition, 48 h
Calls of active or inactive are those of the source. Rule as the data show it: active = GI50 up to about 1.1 µM and inactive = higher.
Would you mind telling me the reported GI50 of each entry?

Record excerpt, results attached:
| COMPOUND | ASSAY TARGET | GI50 |
| --- | --- | --- |
| CSC1=N/C(=C\c2ccc(Cl)cc2)C(=O)N1CN1CCOCC1 | U-251 | 27 µM (inactive) |
| O=c1c2ccccc2c(=O)c2c1cc(Cl)c1[nH]c3c([nH]c12)c(Cl)cc1c(=O)c2ccccc2c(=O)c13 | U-251 | > 100 µM (inactive) |
| Cc1ncc([N+](=O)[O-])n1CC(O)Cn1cnc([N+](=O)[O-])n1 (stereo not given) | U-251 | > 100 µM (inactive) |
| O=C(/C=C(\O)C(=O)O)/C=C(\O)c1ccc(Cl)cc1 | U-251 | > 100 µM (inactive) |

Batch: GI50 for all items listed.
1. COc1ccc(-c2cc(-c3ccc(Nc4ccnc5cc(C(F)(F)F)ccc45)cc3)nc(N)c2C#N)cc1
2. CCNc1nc2c(ncn2C2CC(O)C(COP(=O)(O)O)O2)c(=O)[nH]1 (stereo not given)
3. O=C1c2ccccc2-n2c1nc1ccc(Cl)cc1c2=O
4. Cc1ccc(Nc2cc(=O)[nH]c(=S)[nH]2)cc1

(A)
["75 µM (inactive)", "> 100 µM (inactive)", "34.5 µM (inactive)", "> 100 µM (inactive)"]

Batch: GI50 for all items listed.
1. CCOC(=O)C1C(C(C)C)C2(C#N)C(=N)OC1(C)C2(C#N)C#N (stereo not given)
2. CCOC(=O)C1=CCOc2cc(N(C)C)ccc21

(A)
1. 82.4 µM (inactive)
2. > 100 µM (inactive)
